Taken from patent US20110262445A1.

- measurement_target: T1, human IL-12 (human, UniProt P29460 23-328; P29459 23-219)
- T1 construct: Recombinant (Peprotech); FLAG-tagged IL-12 in the flow cytometry assays, biotinylated in the IL-12Rβ2 assay; also called hIL-12
- T1 sequence 1: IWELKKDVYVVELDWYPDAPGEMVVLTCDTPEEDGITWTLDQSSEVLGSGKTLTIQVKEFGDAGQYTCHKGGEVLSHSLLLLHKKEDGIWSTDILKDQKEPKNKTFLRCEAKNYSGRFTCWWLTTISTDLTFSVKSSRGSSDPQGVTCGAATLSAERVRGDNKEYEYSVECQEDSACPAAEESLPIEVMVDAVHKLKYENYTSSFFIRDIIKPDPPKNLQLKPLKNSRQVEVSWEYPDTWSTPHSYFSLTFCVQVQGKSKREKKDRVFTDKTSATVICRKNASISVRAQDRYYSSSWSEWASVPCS
- T1 sequence 2: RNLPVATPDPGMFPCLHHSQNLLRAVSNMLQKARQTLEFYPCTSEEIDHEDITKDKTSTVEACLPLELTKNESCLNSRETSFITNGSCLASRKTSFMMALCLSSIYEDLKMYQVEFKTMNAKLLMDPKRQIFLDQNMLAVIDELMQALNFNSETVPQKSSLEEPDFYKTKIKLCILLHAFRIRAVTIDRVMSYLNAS
- test_name: SPR, IgG on Protein A
measured_quantity: Kd (nM)
Give just the numeric value; nM need not be written.

Query: Need Kd, item Antibody 193 (antibody, human IgG1, kappa, V domains shown) VH: QVQLVQSGAEVKKPGASVKVSCKASGYTFTDYYLHWVRQAPGQGLEWMGWIDPENGDTESAPKFQGRVTMTTDTSTSTAYMELRSLRSDDTAVYYCAANKELRYFDVWGQGTMVTVSS VL: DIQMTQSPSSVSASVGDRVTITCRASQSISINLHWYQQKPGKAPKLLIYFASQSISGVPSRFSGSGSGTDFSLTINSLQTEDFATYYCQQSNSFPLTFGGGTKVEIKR
Reply: 0.0794

Query: Please answer likewise for Antibody 136 (antibody, human IgG1, kappa, V domains shown, Humanized PMA204 (1RZ7 framework)) VH: EVQLVQSGAEVKKPGATVKISCKASGYTFSDYYLHWVRQAPEKGLEWMGWIDPENGDTEYAPKFQGRVTITADTSTDTGYLELSSLRSEDTAVYYCAANKELRYFDVWGQGTLVTVSS VL: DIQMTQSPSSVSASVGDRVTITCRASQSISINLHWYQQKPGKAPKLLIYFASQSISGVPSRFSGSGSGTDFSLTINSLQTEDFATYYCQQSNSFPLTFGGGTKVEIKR
Reply: 0.197

Query: # repeat for Antibody 195 (antibody, human IgG1, kappa, V domains shown) VH: QVQLVQSGAEVKKPGASVKVSCKASGYTFTDYYLHWVRQAPGQGLEWMGWIDPENGDTEHAPKFQGRVTMTTDTSTSTAYMELRSLRSDDTAVYYCAANKELRYFDVWGQGTMVTVSS VL: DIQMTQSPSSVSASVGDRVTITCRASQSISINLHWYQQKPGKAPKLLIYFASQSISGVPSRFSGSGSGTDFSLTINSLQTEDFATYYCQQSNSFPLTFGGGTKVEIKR
Reply: 0.103

Query: Same question, Antibody 205 (antibody, human IgG1, kappa, V domains shown) VH: QVQLVQSGAEVKKPGASVKVSCKASGYTFTDYYLHWVRQAPGRGLEWMGWIDPENGDTEYAPKFQGRVTMTTDTSTSTAYMELRSLRSDDTAVYYCAANKELRYFDVWGQGTMVTVSS VL: EIVMTQSPATLSVSPGERATLSCRASQSISINLHWYQQKPGQAPRLLIYFASQSISGIPARFSGSGSGTEFTLTISSLQSEDFAVYYCQQSNSFPLTFGGGTKVEIKR this time
Reply: 0.157
